Assay: Bidirectional permeability (Papp A-B, B-A)
Assay type: in vitro ADME
Conditions: not told; A-B direction
OBSERVED PROPERTY: Papp A→B (×10⁻⁶ cm/s)
Report as a plain number; the unit ×10⁻⁶ cm/s is understood.

Qu. Using the record for Cc1sc2c(c1C)C(c1ccc(Cl)cc1)=N[C@@H](CC(=O)NCCNC(=O)c1ccc(SCCC#CC(C3CCOCC3)N3CCC(NC(=O)COc4cccc5c4C(=O)N(C4CCC(=O)NC4=O)C5=O)CC3)cc1)c1nnc(C)n1-2 (some centres unmarked) [Compound 7a] , report its Papp A→B.
Ans. 0.007

====

Test: Microsomal stability (HLM)
Format: in vitro ADME
Settings: human, human liver microsomes
Attribute: microsomal CLint
Report as a plain number; the unit µL/min/mg is understood.

Qu. Using the record for Cc1sc2c(c1C)C(c1ccc(Cl)cc1)=N[C@@H](CC(=O)NCCNC(=O)c1ccc(SCCC#CC(C3CCOCC3)N3CCC(NC(=O)COc4cccc5c4C(=O)N(C4CCC(=O)NC4=O)C5=O)CC3)cc1)c1nnc(C)n1-2 (some centres unmarked) , report its microsomal CLint.
Ans. 209

Qu. Query Cc1sc2c(c1C)C(c1ccc(Cl)cc1)=N[C@@H](CC(=O)NCC#CC(C1CCN(C(=O)COc3cccc4c3C(=O)N(C3CCC(=O)NC3=O)C4=O)CC1)N1CCN(C(=O)COc3cccc4c3C(=O)N(C3CCC(=O)NC3=O)C4=O)CC1)c1nnc(C)n1-2 (some centres unmarked) next
Ans. 79.1
